Recorded measurements of log10(Ki), one per entry
molecular target: jack bean urease (Canavalia ensiformis); experiment: Enzyme kinetic studies; format: biochemical
Sequence (P07374 whole entry, looked up): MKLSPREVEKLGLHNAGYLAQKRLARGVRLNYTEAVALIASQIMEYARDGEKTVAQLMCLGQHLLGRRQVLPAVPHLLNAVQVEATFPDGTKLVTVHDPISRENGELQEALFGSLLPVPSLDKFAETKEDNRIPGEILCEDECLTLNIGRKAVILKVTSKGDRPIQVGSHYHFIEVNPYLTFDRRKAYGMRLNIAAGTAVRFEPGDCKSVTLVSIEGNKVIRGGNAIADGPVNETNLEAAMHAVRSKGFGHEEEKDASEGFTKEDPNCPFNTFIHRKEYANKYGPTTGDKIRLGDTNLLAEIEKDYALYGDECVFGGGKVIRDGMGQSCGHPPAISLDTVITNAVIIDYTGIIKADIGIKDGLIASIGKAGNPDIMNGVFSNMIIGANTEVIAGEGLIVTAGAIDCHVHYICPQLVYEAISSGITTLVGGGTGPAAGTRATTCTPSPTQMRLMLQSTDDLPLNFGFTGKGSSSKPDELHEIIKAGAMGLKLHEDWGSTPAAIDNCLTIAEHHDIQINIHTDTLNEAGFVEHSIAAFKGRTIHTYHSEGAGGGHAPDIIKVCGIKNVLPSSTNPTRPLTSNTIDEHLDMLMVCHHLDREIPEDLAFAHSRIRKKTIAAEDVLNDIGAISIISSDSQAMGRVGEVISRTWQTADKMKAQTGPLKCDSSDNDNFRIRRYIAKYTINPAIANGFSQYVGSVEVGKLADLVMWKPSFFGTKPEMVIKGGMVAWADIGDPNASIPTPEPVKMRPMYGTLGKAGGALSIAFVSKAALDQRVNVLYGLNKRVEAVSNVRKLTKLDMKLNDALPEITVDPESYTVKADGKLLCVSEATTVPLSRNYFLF
outcome.measure: log10(Ki) (log10 of the value in nM)

molecule	result.number
Cc1ccnc(NS(=O)(=O)c2ccc(NC(=O)Cc3ccccc3Nc3c(Cl)cccc3Cl)cc2)n1 [conjugate 8]	4.03
Cc1cc(NS(=O)(=O)c2ccc(NC(=O)c3ccccc3Nc3cccc(C)c3C)cc2)no1 [conjugate 17]	2.66
Cc1cccc(Nc2ccccc2C(=O)Nc2ccc(S(=O)(=O)Nc3onc(C)c3C)cc2)c1C [conjugate 13]	3.68
N=C(N)NS(=O)(=O)c1ccc(NC(=O)Cc2ccccc2Nc2c(Cl)cccc2Cl)cc1 [conjugate 11]	3.04
O=C(Cc1ccccc1Nc1c(Cl)cccc1Cl)Nc1ccc(S(=O)(=O)Nc2nccs2)cc1 [conjugate 6]	4.21
Cc1cccc(Nc2ccccc2C(=O)Nc2ccc(S(N)(=O)=O)cc2)c1C [conjugate 12]	3.49
Cc1cccc(Nc2ccccc2C(=O)Nc2ccc(S(=O)(=O)Nc3ncccn3)cc2)c1C [conjugate 15]	3.02
CC(=O)NS(=O)(=O)c1ccc(NC(=O)Cc2ccccc2Nc2c(Cl)cccc2Cl)cc1 [conjugate 10]	3.44
Cc1cccc(Nc2ccccc2C(=O)Nc2ccc(S(=O)(=O)Nc3nccs3)cc2)c1C [conjugate 14]	3.22

# credit: paper PMC10702309
